Test: Pharmacokinetics of intraperitoneal or intravenous injection in CD1 mice
Assay type: in vivo
Details: male, CD1, mouse, plasma, iv, 1 mg/kg, IV 1.0 mg/kg, CD1 mice plasma, 0.25 h; read-out: Conc. (ng/mL) Mouse 2
Description: The pharmacokinetics of exemplary compounds 103, 107, 100, 101, and 102 was examined for intraperitoneal and intravenous administration. The desired serial concentrations of working solutions were achieved by diluting stock solution (1 mg/mL in DMSO) of analyte with methanol. […] 10 μL of the diluted supernatant was injected into the LC/MS/MS system for quantitative analysis. […]
QUANTITY_MEASURED: concentration at 0.25 h (ng/mL)
Numbers only here, please. The scale is ng/mL.

stdin: Tell me the measured concentration at 0.25 h of Cc1ncsc1-c1ccc(CNC(=O)[C@@H]2C[C@@H](O)CN2C(=O)[C@@H](NC(=O)COCCOc2ccc(Nc3ncc(C(F)(F)F)c(NCc4cccc(N(C)S(C)(=O)=O)c4)n3)cc2)C(C)(C)C)cc1 , please.
stdout: 48.2

stdin: Tell me the measured concentration at 0.25 h of Cc1ncsc1-c1ccc(CNC(=O)[C@@H]2C[C@@H](O)CN2C(=O)[C@@H](NC(=O)COCCCOc2ccc(Nc3ncc(C(F)(F)F)c(NCc4cccc(N(C)S(C)(=O)=O)c4)n3)cc2)C(C)(C)C)cc1 , please.
stdout: 47.7

stdin: Tell me the measured concentration at 0.25 h of Cc1ncsc1-c1ccc(CNC(=O)[C@@H]2C[C@@H](O)CN2C(=O)[C@@H](NC(=O)CCOCCCOc2ccc(Nc3ncc(C(F)(F)F)c(NCc4cccc(N(C)S(C)(=O)=O)c4)n3)cc2)C(C)(C)C)cc1 , please.
stdout: 382

stdin: Tell me the measured concentration at 0.25 h of Cc1ncsc1-c1ccc(CNC(=O)[C@@H]2C[C@@H](O)CN2C(=O)[C@@H](NC(=O)CCOCCOc2ccc(Nc3ncc(C(F)(F)F)c(NCc4cccc(N(C)S(C)(=O)=O)c4)n3)cc2)C(C)(C)C)cc1 , please.
stdout: 67.4

stdin: Tell me the measured concentration at 0.25 h of CN(c1cccc(CNc2nc(Nc3ccc(OCCCOCCC(=O)NCCOc4cccc5c4C(=O)N(C4CCC(=O)NC4=O)C5=O)cc3)ncc2C(F)(F)F)c1)S(C)(=O)=O (centres unmarked) , please.
stdout: 2.25
